molecular target: dopamine D1 receptor (D1R) (Mus musculus, UniProt Q61616); construct: gene Drd1; native full-length receptor, endogenous in membranes of STHdh^Q7 mouse striatal cells; part may be in D1R-H3R heteromers; assay: radioligand saturation binding, cell membranes, filtration; conditions: labelled compound; STHdh^Q7 cell membranes; 50 mM Tris-HCl pH 7.4, 10 mM MgCl2, 25 °C; nonspecific with 30 µM unlabelled ligand; read-out: binding parameters
Value type: pKd
The read-out pKd is expressed as -log10 of concentration in moles per litre.

Recorded result, CN1CCc2cc(Cl)c(O)cc2[C@@H](c2ccccc2)C1 [[^3H] SCH 23390] , pKd: 9.52

---

target: D1R (Mus musculus); construct: gene Drd1; native receptor, endogenous in mouse brain tissue membranes; assay: tissue or organelle; parameters: species or system brain tissue of 8-month-old Hdh^Q7/Q7 or Hdh^Q7/Q111 mice; radioligand binding to mouse brain region membranes, KD from saturation and competition curves; settings: Hippocampus; 8-month-old Hdh^Q7/Q7 mice
Sequence (Q61616 whole entry): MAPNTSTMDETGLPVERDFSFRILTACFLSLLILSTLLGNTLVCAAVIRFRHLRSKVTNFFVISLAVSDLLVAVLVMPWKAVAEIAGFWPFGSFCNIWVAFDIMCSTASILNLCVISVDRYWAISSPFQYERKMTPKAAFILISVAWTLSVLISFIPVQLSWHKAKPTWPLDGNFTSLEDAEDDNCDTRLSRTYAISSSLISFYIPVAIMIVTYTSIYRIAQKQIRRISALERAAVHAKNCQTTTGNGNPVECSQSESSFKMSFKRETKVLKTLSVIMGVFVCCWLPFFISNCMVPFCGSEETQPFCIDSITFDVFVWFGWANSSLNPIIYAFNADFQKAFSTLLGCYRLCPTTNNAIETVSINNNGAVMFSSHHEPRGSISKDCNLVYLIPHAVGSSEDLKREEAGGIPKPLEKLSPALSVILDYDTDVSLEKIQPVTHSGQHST
Value type: Kd
Write your answer as a measured quantity: the number, then the unit.

Recorded result, CN1CCc2cc(Cl)c(O)cc2[C@@H](c2ccccc2)C1 [[^3H] SCH 23390] , Kd: 0.03 nM
